Would you mind telling me the reported cell count rep 1 of each entry?
System: HeLa cells
Test: Compound screen by flow cytometry: HeLa cell count as surrogate readout of cell viability (z-scoreHeLa)
Format: cell-based, human
Conditions: PKIS compounds raw data; replicate 1; HeLa cell count
Protocol: The cells were resuspended in cell culture medium without antibiotics, seeded with 10,000 cells/well into Costar flat-bottom 96-well plates (Corning, Amsterdam, the Netherlands), and were incubated overnight at 37°C/5% CO2. […] The calculated mean MOI throughout all experiments was 6.8 ± 4.6 (mean ± SD). […] HeLa cells were harvested by trypsinization and fixed with 1% paraformaldehyde. Samples were measured on a FACSLyric with HTS extension (BD Biosciences). […]
Lab note: record just the number, no unit beside it.

q: Can you look up cell count rep 1 on HeLa cells for Cc1nc(-c2ccccc2)n2nc(NCCCN3CCOCC3)ncc12 [GW874091X] ?
a: 3071

q: HeLa cells / cell count rep 1 / c1ccc(-c2ccc3c(Nc4ccc5[nH]ccc5c4)ccnc3c2)nc1 [GW440138A] : value?
a: 7521

q: What cell count rep 1 appears in the records for this compound with HeLa cells? CS(=O)(=O)CCNCc1ccc(-c2ccc3ncnc(Nc4ccc(OCc5ccccc5)c(Cl)c4)c3c2)o1 [GW574783B]
a: 8853

q: Form field: cell count rep 1 recorded for CN(c1ccc2c(c1)nc(NCc1ccccc1)n2C)c1ccnc(Nc2ccc(CS(C)(=O)=O)cc2)n1 [GW811603A] with HeLa cells (enter value)
a: 3958

----------
system: HeLa cells; assay: Compound screen by flow cytometry: HeLa cell count as surrogate readout of cell viability (z-scoreHeLa); assay type: cell-based, human; details: PKIS compound screen raw data, HeLa cell count, replicate 2
value.kind: cell count rep 2
The answer should be a number; do not append a unit.

q: For c1ccc(Oc2ccc(Nc3ccnc4cc(-c5ccc(CNCCN6CCOCC6)o5)ccc34)cc2)nc1 [GW567145X] , what is its reported cell count rep 2?
a: 19879

q: Field request: cell count rep 2 | item: CC(C)c1nc(-c2cccc(NS(=O)(=O)c3ccccc3)c2)c(-c2ccnc(Nc3ccc4c(c3)CN(C)CC4)n2)s1 [GSK1649598A]
a: 20392

q: What does the data say about its cell count rep 2? Entry: COc1ccc(Nc2nccc(N3CCC(NC(=O)c4cc5ccccc5s4)C3)n2)cc1 (stereo not shown) [GSK1379738A]
a: 33049

q: Item COc1cc2ncn(-c3cc(OCc4ccccc4C(F)(F)F)c(C(=O)N(C)C)s3)c2cc1OC [GSK1030062A] has what recorded cell count rep 2?
a: 31389

----------
test system: HeLa cells; assay: Compound screen by flow cytometry: HeLa cell count as surrogate readout of cell viability (z-scoreHeLa); type: cell-based, human; settings: compound screen, HeLa cell count, replicate 1
Simple rule here: z-scoreHeLa rep 1 less than 0.01 is condition met, otherwise condition not met.

q: Lab note: confirm whether the reported z-scoreHeLa rep 1 for this compound is below 0.01, equality not counting. compound: COc1cccc(NC(=O)NCCNc2ccnc(Nc3ccc(F)cc3)n2)c1 [GSK1379879A]
a: condition not met

q: Hello, is z-scoreHeLa rep 1 of the following compound strictly smaller than 0.01? NCCCC(NC(=O)c1cc(Br)c(-c2ccnc3[nH]ccc23)s1)c1ccccc1 (centres unmarked) [GSK1287544A]
a: condition not met

q: Lab note: confirm whether the reported z-scoreHeLa rep 1 for this compound is below 0.01, equality not counting. compound: Cc1ccnc2ccc(-c3sc(N)nc3-c3ccccn3)nc12 [GW777257X]
a: condition met

q: # check: z-scoreHeLa rep 1 < 0.01 for COc1ccccc1-c1cc(/C=C2\C(=O)Nc3ncc(Br)cc32)cc(Br)c1O [GW442130X]
a: condition met

q: Regarding CN(c1ccc(NC(=O)Nc2cccc(Cl)c2)cc1)c1ccnc(N)n1 [GW830707A] , kindly confirm whether its z-scoreHeLa rep 1 is beneath 0.01.
a: condition met

q: A record lists CCn1cc(-c2ccnc3[nH]ccc23)c(-c2cccc(NC(=O)Nc3ccc(OCc4ccccc4)cc3)c2)n1 [GSK718429A] . Is its z-scoreHeLa rep 1 below 0.01?
a: condition met

q: Threshold test, z-scoreHeLa rep 1 < 0.01: CS(=O)(=O)Cc1ccc(Nc2nccc(-c3c(-c4cccc(NC(=O)C5CCCCC5)c4)nn4ncccc34)n2)cc1 [GSK350559A]
a: condition not met

q: Lab log: compare recorded z-scoreHeLa rep 1 with 0.01; is it strictly lower for Cc1ccc2c(c1)C(=NNc1ccc(S(N)(=O)=O)cc1)C(=O)N2 [GW275944X] ?
a: condition met

----------
Exercise: state measured z-scoreHeLa rep 2 for each of the molecules provided.
tested on: HeLa cells; experiment: Compound screen by flow cytometry: HeLa cell count as surrogate readout of cell viability (z-scoreHeLa); format: cell-based, human; conditions: PKIS compound screen, HeLa cell count, replicate 2
Could you respond with only the numeric value?

q: Quick check: z-scoreHeLa rep 2 on HeLa cells, item COc1cc2nccc(Nc3cccc(Oc4ccccc4)c3)c2cc1OC [GW284543A] ?
a: -0.25

q: Hello, I am looking for reported z-scoreHeLa rep 2 with HeLa cells for c1ccc(-c2n[nH]cc2Nc2ccnc3ccccc23)nc1 [GW694077X] . Could you help?
a: 0.55

q: Under HeLa cells: z-scoreHeLa rep 2 value of O=C(Nc1ccccc1F)NC1CCN(c2ccnc(Nc3ccc(F)cc3)n2)C1 (centres unmarked) [GSK1379722A] ?
a: 0.81

q: Param readout = z-scoreHeLa rep 2; param system = HeLa cells; param query = Cc1c(Cn2ccn3c(=O)cc(N4CCOCC4)nc23)cccc1C(F)(F)F [GSK2289044B] ; response: value
a: -1.52

q: API: value(readout= z-scoreHeLa rep 2, system= HeLa cells, query= Cc1cccc(Cn2ccn3c(=O)cc(N4CCOCC4)nc23)c1 [GSK2297542A] )
a: 0.98

----------
For each entry below, report its z-scoreHeLa rep 2 value.
system: HeLa cells; assay: Compound screen by flow cytometry: HeLa cell count as surrogate readout of cell viability (z-scoreHeLa); assay type: cell-based, human; details: compound screen, HeLa cell count, replicate 2
Give only the figure.

q: Find the recorded z-scoreHeLa rep 2 belonging to CC(C)c1ccc2c(c1)NC(=O)C2=NNc1ccc(S(N)(=O)=O)cc1 [GW300653X] and report it.
a: -0.55

q: Which z-scoreHeLa rep 2 value is on record for COc1ccc(CNC(=O)NC2CCN(c3ccnc(Nc4cc(OC)c(OC)c(OC)c4)n3)C2)cc1 (stereo not shown) [GSK1379748A] ?
a: 0.20

q: Bench note: what z-scoreHeLa rep 2 did Cc1cc(-c2ccnc(Nc3cccc(C#N)c3)n2)cc(C)c1O [GSK1440913A] show?
a: -0.27

q: Find the recorded z-scoreHeLa rep 2 belonging to CS(=O)(=O)CCNCc1nc(-c2ccc3ncnc(Nc4ccc(F)c(Cl)c4)c3c2)cs1 [GW461104A] and report it.
a: -2.57

----------
test system: HeLa cells; test: Compound screen by flow cytometry: HeLa cell count as surrogate readout of cell viability (z-scoreHeLa); assay type: cell-based, human; details: PKIS compound screen, HeLa cell count, replicate 1
For each record, write down the corresponding z-scoreHeLa rep 1.
Please respond with just the number, no unit label.

q: Item under review: Cc1ccc(NC(=O)c2ccnc(N3CCN(C)CC3)c2)cc1-c1ccc(C(=O)NCC2CC2)cc1 [GW775604X] . Reported z-scoreHeLa rep 1?
a: -1.62

q: Which z-scoreHeLa rep 1 is listed for Cc1cc(NCC(c2ccccc2)c2ccccc2)nc(NCc2ccc(C(F)(F)F)cc2)n1 [GW497681X] ?
a: -2.12

q: # lookup: z-scoreHeLa rep 1 of CS(=O)(=O)CCNCc1cc(-c2cc3c(Nc4ccc(OCc5cccc(F)c5)c(Cl)c4)ncnc3s2)cs1 [GSK300014A]
a: 1.34

q: What value of z-scoreHeLa rep 1 has been recorded for this entry: Nc1ncc(-c2cccnc2)c2scc(-c3ccc4c(c3)CCN4C(=O)Cc3ccccc3)c12 [GSK683281A]
a: 0.30

----------
Field: z-scoreHeLa rep 3. Provide a value for each of the compounds that follow.
tested on: HeLa cells; test: Compound screen by flow cytometry: HeLa cell count as surrogate readout of cell viability (z-scoreHeLa); assay type: cell-based, human; conditions: human
API doc: respond with a numeric literal and nothing else, no unit.

q: Could you tell me which z-scoreHeLa rep 3 is on file for CCN(CC)CCOc1ccc(Nc2ncc3cc(-c4c(Cl)cccc4Cl)c(=O)n(C)c3n2)cc1 [SB-601273] ?
a: -2.55

q: What value of z-scoreHeLa rep 3 has been reported for the following compound? COc1cc2c(Nc3ccc(NC(=O)c4ccccc4)cc3)ncnc2cc1OCCCN1CCOCC1 [GSK301329A]
a: -0.00157

q: Entry Cc1ccc(O)cc1Nc1ccnc2ccc(S(C)(=O)=O)cc12 [GW559768X] has what z-scoreHeLa rep 3?
a: 0.66

q: Dear colleague, I am looking for the recorded z-scoreHeLa rep 3 of the following compound: Clc1ccc(CNc2nccc(-c3cnn4ncccc34)n2)cc1 [GW781673X]
a: -0.46

q: # get_value(readout='z-scoreHeLa rep 3', item= O=C1Nc2ccc(I)cc2C1=Cc1cc(Br)c(O)c(Br)c1 [GW305074X] )
a: -2.55
